# test.system: CDK1/cyclin B (Homo sapiens)
# Sequence (P06493 whole entry, species assumed): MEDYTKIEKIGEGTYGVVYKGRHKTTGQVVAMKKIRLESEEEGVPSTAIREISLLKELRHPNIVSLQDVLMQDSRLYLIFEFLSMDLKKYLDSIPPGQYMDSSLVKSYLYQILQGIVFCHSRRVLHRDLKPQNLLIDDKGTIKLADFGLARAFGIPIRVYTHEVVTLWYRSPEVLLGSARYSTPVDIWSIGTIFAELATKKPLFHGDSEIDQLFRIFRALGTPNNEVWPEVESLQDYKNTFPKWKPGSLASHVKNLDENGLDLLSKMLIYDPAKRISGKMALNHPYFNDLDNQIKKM
# Sequence (P14635 whole entry partner, species assumed): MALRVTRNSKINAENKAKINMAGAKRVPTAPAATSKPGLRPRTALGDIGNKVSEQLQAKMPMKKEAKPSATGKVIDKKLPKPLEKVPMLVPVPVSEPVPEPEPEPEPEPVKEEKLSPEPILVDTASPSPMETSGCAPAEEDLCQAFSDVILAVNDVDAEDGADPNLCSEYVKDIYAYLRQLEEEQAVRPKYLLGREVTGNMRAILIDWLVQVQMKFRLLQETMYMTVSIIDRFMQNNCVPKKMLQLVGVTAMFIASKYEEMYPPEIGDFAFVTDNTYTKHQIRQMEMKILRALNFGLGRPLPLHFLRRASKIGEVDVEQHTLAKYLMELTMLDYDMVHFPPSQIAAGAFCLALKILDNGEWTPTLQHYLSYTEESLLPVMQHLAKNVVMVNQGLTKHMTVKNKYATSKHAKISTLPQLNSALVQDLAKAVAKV
# assay.details: Kinase assay CDK1/cyclin B
# Assay type: biochemical
# recorded.conditions: Table 2; read-out: Kinase inhibition IC50 CDK1B
# Method: The compounds from the examples above were investigated for their ability to inhibit the enzymatic activity of various protein kinases. This was achieved by measurement of incorporation of radioactive phosphate from ATP into appropriate polypeptide substrates. […] After washing 3 times with 75 mM aq orthophosphoric acid, plates were dried, scintillant added and incorporated radioactivity measured in a scintillation counter (TopCount, Packard Instruments, Pangbourne, Berks, UK). […]
property: IC50

Some compounds with known IC50 results, for comparison:
[
  {
    "compound": "Fc1ccc(Nc2nccc(-c3c[nH]c4ccccc34)n2)cc1 [Compound 3]",
    "test.system": "CDK1/cyclin B (Homo sapiens)",
    "IC50": "> 100 µM"
  },
  {
    "compound": "COc1ccc(Nc2nccc(-c3c[nH]c4ccccc34)n2)cn1 [Compound 4]",
    "test.system": "CDK1/cyclin B (Homo sapiens)",
    "IC50": "1.9 µM"
  }
]

Next compound, please.
So what does the record say about IC50 for O=[N+]([O-])c1cccc(Nc2nccc(-c3c[nH]c4ccccc34)n2)c1 [Compound 2] ?
> 100 µM

====

# test.system: Flt-3 (Homo sapiens, UniProt P36888)
# Construct: purchased Upstate, Dundee, UK
# Sequence (P36888 564-993 limits assumed): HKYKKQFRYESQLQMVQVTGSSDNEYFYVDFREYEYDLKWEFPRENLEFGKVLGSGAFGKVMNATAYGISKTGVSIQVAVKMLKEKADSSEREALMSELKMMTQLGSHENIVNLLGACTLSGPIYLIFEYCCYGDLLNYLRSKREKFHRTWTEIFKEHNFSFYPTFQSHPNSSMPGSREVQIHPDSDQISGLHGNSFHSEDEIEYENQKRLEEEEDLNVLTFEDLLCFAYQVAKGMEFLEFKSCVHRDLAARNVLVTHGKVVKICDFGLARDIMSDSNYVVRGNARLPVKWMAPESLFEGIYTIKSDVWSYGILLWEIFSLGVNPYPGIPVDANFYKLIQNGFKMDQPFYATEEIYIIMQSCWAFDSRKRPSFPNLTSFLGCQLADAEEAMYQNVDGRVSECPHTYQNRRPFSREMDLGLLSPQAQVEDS
# assay.details: Flt3 kinase assay
# Assay type: biochemical
# recorded.conditions: Table 2; read-out: Kinase inhibition IC50 FLT3
Consider the following compounds; for each one, report its IC50.
Remember to follow the number with its unit.

[
  {
    "compound": "c1ccc2c(-c3ccnc(Nc4ccc(N5CCOCC5)cc4)n3)c[nH]c2c1 [Compound 5]",
    "property": "IC50",
    "result": "52 nM"
  },
  {
    "compound": "O=[N+]([O-])c1cccc(Nc2nccc(-c3c[nH]c4ccccc34)n2)c1 [Compound 2]",
    "property": "IC50",
    "result": "130 nM"
  }
]

Quick batch: IC50 for everything below.
1. Fc1ccc(Nc2nccc(-c3c[nH]c4ccccc34)n2)cc1 [Compound 3]
2. COc1ccc(Nc2nccc(-c3c[nH]c4ccccc34)n2)cn1 [Compound 4]

1. 270 nM
2. 150 nM

====

# test.system: Flt-3 (Homo sapiens)
# Construct: purchased Upstate, Dundee, UK
# assay.details: Flt3 kinase assay
# Assay type: biochemical
# recorded.conditions: Table 3; read-out: Kinase inhibition Flt3
pIC50: −log10 of the molar value.
Label fulfilled when pIC50 is at or above 7; anything below gets not fulfilled.

[
  {
    "compound": "Fc1ccc(Nc2nccc(-c3c[nH]c4ccccc34)n2)cc1 [Compound 3]",
    "class": "not fulfilled"
  },
  {
    "compound": "COc1cc(Nc2nccc(-c3c[nH]c4ccccc34)n2)cc(OC)c1OC [Compound 12]",
    "class": "fulfilled"
  },
  {
    "compound": "c1ccc2c(-c3ccnc(Nc4ccc(N5CCOCC5)cc4)n3)c[nH]c2c1 [Compound 5]",
    "class": "fulfilled"
  }
]

Proceed to the following item.
State whether the measured pIC50 reaches 7, counting equality as reaching it, for CC1CN(c2ccc(Nc3nccc(-c4c[nH]c5ccccc45)n3)cc2)CC(C)O1 (stereo not drawn) [Compound 9]
fulfilled

====

The following compounds have recorded IC50 on UniProtKB Q96GD4.
Sequence (Q96GD4 whole entry): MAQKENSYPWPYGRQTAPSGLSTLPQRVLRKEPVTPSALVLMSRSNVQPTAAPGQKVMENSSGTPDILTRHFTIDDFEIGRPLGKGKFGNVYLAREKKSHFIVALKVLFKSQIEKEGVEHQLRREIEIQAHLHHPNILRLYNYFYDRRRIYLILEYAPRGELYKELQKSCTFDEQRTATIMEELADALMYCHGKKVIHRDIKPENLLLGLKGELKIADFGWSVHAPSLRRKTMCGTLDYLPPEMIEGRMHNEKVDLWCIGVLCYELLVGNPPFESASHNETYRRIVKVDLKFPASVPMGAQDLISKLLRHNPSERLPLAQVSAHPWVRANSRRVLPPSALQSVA

Some compounds with known IC50 results, for comparison:
[
  {
    "compound": "CC(=O)N1CCN(c2ccc(Nc3nccc(-c4c[nH]c5ccccc45)n3)cc2C)CC1 [Compound 27]",
    "IC50": "365 nM"
  },
  {
    "compound": "COc1cc(Nc2nccc(-c3c[nH]c4ccccc34)n2)ccc1N1CCOCC1 [Compound 13]",
    "IC50": "228 nM"
  }
]

Next compound, please.
So what does the record say about IC50 for CC(=O)N1CCN(c2ccc(Nc3nccc(-c4c[nH]c5c(C)cccc45)n3)cc2)CC1 [Compound 23] ?
76.1 nM

====

Consider the following compounds; for each one, report its pIC50.
# test.system: CDK2/cyclin E (Homo sapiens, UniProt P24941)
# assay.details: Kinase assay CDK2/cyclin E
# Assay type: biochemical
# recorded.conditions: Table 2; read-out: Kinase inhibition IC50 CDK2E
Give bare numbers, as −log10 of the molar value.

[
  {
    "compound": "COc1ccc(Nc2nccc(-c3c[nH]c4ccccc34)n2)cn1 [Compound 4]",
    "test.system": "CDK2/cyclin E (Homo sapiens, UniProt P24941)",
    "property": "pIC50",
    "result.number": 5.89
  }
]

Quick batch: pIC50 for everything below.
1. Fc1ccc(Nc2nccc(-c3c[nH]c4ccccc34)n2)cc1 [Compound 3]
2. O=[N+]([O-])c1cccc(Nc2nccc(-c3c[nH]c4ccccc34)n2)c1 [Compound 2]

1. 5.92
2. 5.54

====

# test.system: CDK9/cyclin T1 (Homo sapiens)
# Sequence (P50750 whole entry): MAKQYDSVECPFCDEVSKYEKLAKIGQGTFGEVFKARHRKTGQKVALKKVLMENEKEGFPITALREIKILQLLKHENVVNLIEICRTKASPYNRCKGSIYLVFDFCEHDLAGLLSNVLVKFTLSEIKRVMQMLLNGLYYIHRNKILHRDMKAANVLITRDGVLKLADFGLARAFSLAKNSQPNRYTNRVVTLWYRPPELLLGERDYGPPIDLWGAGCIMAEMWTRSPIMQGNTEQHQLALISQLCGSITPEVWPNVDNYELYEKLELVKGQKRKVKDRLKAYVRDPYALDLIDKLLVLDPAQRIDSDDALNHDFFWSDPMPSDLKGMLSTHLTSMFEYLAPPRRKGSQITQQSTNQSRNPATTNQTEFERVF
# Sequence (O60563 whole entry partner): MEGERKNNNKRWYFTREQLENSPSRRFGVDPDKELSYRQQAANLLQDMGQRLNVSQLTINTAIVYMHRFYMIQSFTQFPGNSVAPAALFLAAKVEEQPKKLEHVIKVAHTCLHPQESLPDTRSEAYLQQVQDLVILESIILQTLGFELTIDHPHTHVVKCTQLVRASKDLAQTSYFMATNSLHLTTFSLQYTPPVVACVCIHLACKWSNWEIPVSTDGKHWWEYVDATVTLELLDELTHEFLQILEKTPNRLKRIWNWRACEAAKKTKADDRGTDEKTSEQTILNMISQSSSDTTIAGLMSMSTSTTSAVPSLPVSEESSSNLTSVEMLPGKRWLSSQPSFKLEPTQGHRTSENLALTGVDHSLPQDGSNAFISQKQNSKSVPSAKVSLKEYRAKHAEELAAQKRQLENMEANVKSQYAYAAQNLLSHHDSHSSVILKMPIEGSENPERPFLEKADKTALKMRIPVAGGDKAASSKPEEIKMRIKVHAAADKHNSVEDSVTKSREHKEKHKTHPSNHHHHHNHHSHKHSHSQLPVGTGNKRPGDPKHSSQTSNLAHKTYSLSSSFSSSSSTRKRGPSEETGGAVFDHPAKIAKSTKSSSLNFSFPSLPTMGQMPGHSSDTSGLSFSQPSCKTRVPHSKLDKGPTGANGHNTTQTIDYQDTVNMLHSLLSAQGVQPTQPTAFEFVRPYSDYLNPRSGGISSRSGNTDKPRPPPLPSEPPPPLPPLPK
# assay.details: CDK 9 assay
# Type: biochemical
# recorded.conditions: Table 2; read-out: Kinase inhibition IC50 CDK9T1
# Description: CTD peptide substrate (biotinyl-Ahx-(Tyr-Ser-Pro-Thr-Ser-Pro-Ser)4-NH2; 1-2 mg/mL) and recombinant human CDK7/cyclin H, CDK9/cyclin TI, or CDK9/cyclin K (0.5-2 μg) were incubated for 45 min at 30° C. in the presence of varying amounts of test compound in 20 mM MOPS pH 7.2, 25 mM β-glycerophosphate, 5 mM EGTA, 1 mM DTT, 1 mM sodium vanadate, 15 mM MgCl2, and 100 μM ATP (containing a trace amount of ^32PγATP) in a total volume of 25 μL in a 96-well microtiter plate. […]
Consider the following molecules; for each one, report its pIC50.
Numbers only, as −log10 of the molar value.

[
  {
    "molecule": "O=[N+]([O-])c1cccc(Nc2nccc(-c3c[nH]c4ccccc34)n2)c1 [Compound 2]",
    "pIC50": 5.21
  }
]

Next molecule, please.
So what does the record say about pIC50 for COc1ccc(Nc2nccc(-c3c[nH]c4ccccc34)n2)cn1 [Compound 4] ?
5.55

====

Consider the following molecules; for each one, report its IC50.
# test.system: CDK7/cyclin H (Homo sapiens, UniProt P50613)
# Sequence (P50613 whole entry): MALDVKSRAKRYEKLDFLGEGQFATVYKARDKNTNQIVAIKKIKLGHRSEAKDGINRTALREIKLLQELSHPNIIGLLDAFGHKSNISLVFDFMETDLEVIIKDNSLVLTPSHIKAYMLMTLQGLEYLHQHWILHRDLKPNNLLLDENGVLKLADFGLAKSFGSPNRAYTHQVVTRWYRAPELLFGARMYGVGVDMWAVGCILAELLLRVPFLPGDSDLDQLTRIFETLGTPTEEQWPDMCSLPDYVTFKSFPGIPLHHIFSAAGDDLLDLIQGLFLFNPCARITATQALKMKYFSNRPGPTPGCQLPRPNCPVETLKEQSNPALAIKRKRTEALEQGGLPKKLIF
# Sequence (P51946 whole entry partner): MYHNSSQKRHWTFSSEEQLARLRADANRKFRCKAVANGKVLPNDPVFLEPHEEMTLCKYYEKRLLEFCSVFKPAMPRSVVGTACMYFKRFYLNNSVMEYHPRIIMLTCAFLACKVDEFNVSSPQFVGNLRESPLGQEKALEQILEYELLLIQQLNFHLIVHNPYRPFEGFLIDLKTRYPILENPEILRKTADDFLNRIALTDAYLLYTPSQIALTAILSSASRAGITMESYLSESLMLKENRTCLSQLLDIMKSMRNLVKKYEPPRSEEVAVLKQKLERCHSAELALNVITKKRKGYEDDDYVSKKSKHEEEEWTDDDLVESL
# assay.details: CDK 7 assay
# Assay type: biochemical
# recorded.conditions: Table 2; read-out: Kinase inhibition IC50 CDK7H
# Procedure: CTD peptide substrate (biotinyl-Ahx-(Tyr-Ser-Pro-Thr-Ser-Pro-Ser)4-NH2; 1-2 mg/mL) and recombinant human CDK7/cyclin H, CDK9/cyclin TI, or CDK9/cyclin K (0.5-2 μg) were incubated for 45 min at 30° C. in the presence of varying amounts of test compound in 20 mM MOPS pH 7.2, 25 mM β-glycerophosphate, 5 mM EGTA, 1 mM DTT, 1 mM sodium vanadate, 15 mM MgCl2, and 100 μM ATP (containing a trace amount of ^32PγATP) in a total volume of 25 μL in a 96-well microtiter plate. […]

Quick batch: IC50 for everything below.
1. O=[N+]([O-])c1cccc(Nc2nccc(-c3c[nH]c4ccccc34)n2)c1
2. COc1ccc(Nc2nccc(-c3c[nH]c4ccccc34)n2)cn1
3. c1ccc2c(-c3ccnc(Nc4ccc(N5CCOCC5)cc4)n3)c[nH]c2c1
4. Fc1ccc(Nc2nccc(-c3c[nH]c4ccccc34)n2)cc1

["> 100 µM", "5.4 µM", "> 10 µM", "> 100 µM"]

====

Consider the following molecules; for each one, report its IC50.
# test.system: CDK2/cyclin E (Homo sapiens, UniProt P24941)
# assay.details: Kinase assay CDK2/cyclin E
# Type: biochemical
# recorded.conditions: Table 3; read-out: Kinase inhibition CDK2E

[
  {
    "molecule": "CC(=O)N1CCN(c2ccc(Nc3nccc(-c4c[nH]c5c(C)cccc45)n3)cc2)CC1",
    "property": "IC50",
    "result": "2.43 µM"
  }
]

Quick batch: IC50 for everything below.
1. COc1cc(Nc2nccc(-c3c[nH]c4ccccc34)n2)ccc1N1CCOCC1
2. CC(=O)N1CCN(c2ccc(Nc3nccc(-c4c(C)[nH]c5ccccc45)n3)cc2)CC1
3. CC(=O)N1CCN(c2ccc(Nc3nccc(-c4c[nH]c5ccccc45)n3)cc2)CC1
4. CC1CN(c2ccc(Nc3nccc(-c4c[nH]c5ccccc45)n3)cc2)CC(C)O1 (stereo not drawn)
5. CN(C)c1ccc(Nc2nccc(-c3c[nH]c4ccccc34)n2)cc1

1: 7.6 µM; 2: 5.15 µM; 3: 4.5 µM; 4: 4.91 µM; 5: 2.35 µM

Source: patent US20090318446A1
